B1: ZC3H15 (parent)
chain: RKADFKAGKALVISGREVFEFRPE

# Variants of: B1
# assayDetails: protein stability index of a GFP-peptide fusion (GPS, HEK-293T) (PSI 1-6); higher = more stable;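 note: lentivirally expressed fusions sorted by FACS into six bins by GFP to DsRed ratio, PSI derived from sequencing read proportions per bin multiplied by bin number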
# testSettings: c terminus: a fixed tail appended
We use 3 as the dividing line for protein stability index: on or above the line is fulfilled, below is not fulfilled.

Some solved entries appear below for comparison.
variantDescription | categoryLabel
A3S | not fulfilled
A3Y | not fulfilled
G15F | not fulfilled
F19L | fulfilled
V12P | fulfilled
K6S | not fulfilled
P23F | not fulfilled
K6P | not fulfilled

# input for lookup
Task item: Given G15C , state whether its protein stability index is at least 3.
Reply: not fulfilled
